# ASSAY INFO: Clearance in ICR mouse at 2 mg/kg, iv
# Assay type: ADME, organism-based
# MEASUREMENT CONDITIONS: in vivo
RECORDED ENDPOINT: clearance (mL/min/kg)
Reply numerically in mL/min/kg, unit not repeated.

Query: Returns the measured clearance for the input compound. Input: CCN(c1cc(-c2ccc(CN3CCN(C(=O)CC4CCC(CNc5cccc6c5C(=O)N(C5CCC(=O)NC5=O)C6=O)CC4)CC3)cc2)cc(C(=O)NCc2c(C)cc(C)[nH]c2=O)c1C)C1CCOCC1 (stereo unspecified)
Response: 0.191

* * *

# ASSAY INFO: MRT(0 to t) in ICR mouse at 2 mg/kg, iv
# Format: ADME, organism-based
# MEASUREMENT CONDITIONS: in vivo
RECORDED ENDPOINT: MRT last (h)
Reply numerically in h, unit not repeated.

Query: Returns the measured MRT last for the input compound. Input: CCN(c1cc(-c2ccc(CN3CCN(C(=O)CC4CCC(CNc5cccc6c5C(=O)N(C5CCC(=O)NC5=O)C6=O)CC4)CC3)cc2)cc(C(=O)NCc2c(C)cc(C)[nH]c2=O)c1C)C1CCOCC1 (stereo unspecified)
Response: 9.7

* * *

# ASSAY INFO: AUC(0 to t) in ICR mouse at 10 mg/kg, po
# Format: ADME, organism-based
# MEASUREMENT CONDITIONS: in vivo
RECORDED ENDPOINT: AUC(0-t) (ng·h/mL)
Reply numerically in ng·h/mL, unit not repeated.

Query: Returns the measured AUC(0-t) for the input compound. Input: CCN(c1cc(-c2ccc(CN3CCN(C(=O)CC4CCC(CNc5cccc6c5C(=O)N(C5CCC(=O)NC5=O)C6=O)CC4)CC3)cc2)cc(C(=O)NCc2c(C)cc(C)[nH]c2=O)c1C)C1CCOCC1 (stereo unspecified)
Response: 29700

* * *

# ASSAY INFO: Bioavailability in ICR mouse at 2 mg/kg, iv
# Assay type: ADME, organism-based
# MEASUREMENT CONDITIONS: in vivo
RECORDED ENDPOINT: bioavailability (%)
Reply numerically in %, unit not repeated.

Query: Returns the measured bioavailability for the input molecule. Input: CCN(c1cc(-c2ccc(CN3CCN(C(=O)CC4CCC(CNc5cccc6c5C(=O)N(C5CCC(=O)NC5=O)C6=O)CC4)CC3)cc2)cc(C(=O)NCc2c(C)cc(C)[nH]c2=O)c1C)C1CCOCC1 (stereo unspecified)
Response: 6.05

* * *

# ASSAY INFO: Apparent volume of distribution in ICR mouse at 2 mg/kg, iv
# Assay type: ADME, organism-based
# MEASUREMENT CONDITIONS: in vivo, read-out: Vz
RECORDED ENDPOINT: Vd (L/kg)
Reply numerically in L/kg, unit not repeated.

Query: Returns the measured Vd for the input compound. Input: CCN(c1cc(-c2ccc(CN3CCN(C(=O)CC4CCC(CNc5cccc6c5C(=O)N(C5CCC(=O)NC5=O)C6=O)CC4)CC3)cc2)cc(C(=O)NCc2c(C)cc(C)[nH]c2=O)c1C)C1CCOCC1 (stereo unspecified)
Response: 0.329

* * *

# ASSAY INFO: MRT(0 to infinity) in ICR mouse at 10 mg/kg, po
# Assay type: ADME, organism-based
# MEASUREMENT CONDITIONS: in vivo
RECORDED ENDPOINT: MRT inf (h)
Reply numerically in h, unit not repeated.

Query: Returns the measured MRT inf for the input compound. Input: CCN(c1cc(-c2ccc(CN3CCN(C(=O)CC4CCC(CNc5cccc6c5C(=O)N(C5CCC(=O)NC5=O)C6=O)CC4)CC3)cc2)cc(C(=O)NCc2c(C)cc(C)[nH]c2=O)c1C)C1CCOCC1 (stereo unspecified)
Response: 17.6

* * *

# ASSAY INFO: Half-life in ICR mouse at 10 mg/kg, po
# Format: ADME, organism-based
# MEASUREMENT CONDITIONS: in vivo
RECORDED ENDPOINT: half-life (h)
Reply numerically in h, unit not repeated.

Query: Returns the measured half-life for the input molecule. Input: CCN(c1cc(-c2ccc(CN3CCN(C(=O)CC4CCC(CNc5cccc6c5C(=O)N(C5CCC(=O)NC5=O)C6=O)CC4)CC3)cc2)cc(C(=O)NCc2c(C)cc(C)[nH]c2=O)c1C)C1CCOCC1 (stereo unspecified)
Response: 11.7

* * *

# ASSAY INFO: Cmax in ICR mouse at 10 mg/kg, po
# Assay type: ADME, organism-based
# MEASUREMENT CONDITIONS: in vivo
RECORDED ENDPOINT: Cmax (ng/mL)
Reply numerically in ng/mL, unit not repeated.

Query: Returns the measured Cmax for the input molecule. Input: CCN(c1cc(-c2ccc(CN3CCN(C(=O)CC4CCC(CNc5cccc6c5C(=O)N(C5CCC(=O)NC5=O)C6=O)CC4)CC3)cc2)cc(C(=O)NCc2c(C)cc(C)[nH]c2=O)c1C)C1CCOCC1 (stereo unspecified)
Response: 2980

* * *

# ASSAY INFO: AUC(0 to t) in ICR mouse at 2 mg/kg, iv
# Type: ADME, organism-based
# MEASUREMENT CONDITIONS: in vivo
RECORDED ENDPOINT: AUC(0-t)

Query: Returns the measured AUC(0-t) for the input molecule. Input: CCN(c1cc(-c2ccc(CN3CCN(C(=O)CC4CCC(CNc5cccc6c5C(=O)N(C5CCC(=O)NC5=O)C6=O)CC4)CC3)cc2)cc(C(=O)NCc2c(C)cc(C)[nH]c2=O)c1C)C1CCOCC1 (stereo unspecified)
Response: 98400 ng·h/mL

* * *

# ASSAY INFO: AUC(0 to infinity) in ICR mouse at 10 mg/kg, po
# Format: ADME, organism-based
# MEASUREMENT CONDITIONS: in vivo
RECORDED ENDPOINT: AUC(0-inf) (ng·h/mL)
Reply numerically in ng·h/mL, unit not repeated.

Query: Returns the measured AUC(0-inf) for the input compound. Input: CCN(c1cc(-c2ccc(CN3CCN(C(=O)CC4CCC(CNc5cccc6c5C(=O)N(C5CCC(=O)NC5=O)C6=O)CC4)CC3)cc2)cc(C(=O)NCc2c(C)cc(C)[nH]c2=O)c1C)C1CCOCC1 (stereo unspecified)
Response: 40500

* * *

# ASSAY INFO: Volume of distribution at steady state in ICR mouse at 2 mg/kg, iv
# Format: ADME, organism-based
# MEASUREMENT CONDITIONS: in vivo, read-out: Vdss
RECORDED ENDPOINT: Vd (L/kg)
Reply numerically in L/kg, unit not repeated.

Query: Returns the measured Vd for the input compound. Input: CCN(c1cc(-c2ccc(CN3CCN(C(=O)CC4CCC(CNc5cccc6c5C(=O)N(C5CCC(=O)NC5=O)C6=O)CC4)CC3)cc2)cc(C(=O)NCc2c(C)cc(C)[nH]c2=O)c1C)C1CCOCC1 (stereo unspecified)
Response: 0.323
